Experiment Description: protein stability index of a GFP-peptide fusion (GPS, HEK-293T) (PSI 1-6); higher = more stable;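 further: 24-mer peptide tiles fused after GFP, lentivirally expressed, FACS-sorted into six equal bins by GFP/DsRed ratio, decoded by Illumina sequencing, PSI is the read-weighted mean bin number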
Experimental Conditions: treatment: MLN4924 1 uM, 8 h; c terminus: a fixed tail appended
We use 3 as the dividing line for protein stability index: on or above the line is Yes, below is No.

Example entries begin here.
Chain | Qualitative Label
PWDESGSGCLPPEPLFEAGDATLA [FOXJ1] | Yes
FIDGKFLPCSSYIDSYDPSTGEVY [ALDH8A1] | No
PVDLWACGVILYILLVGYPPFWDE [CAMK2A] | No

Input line: Test whether the sequence LSAVPEEGDATRDPGPEPEEEPGV [PSD2] records protein stability index of 3 or higher.
Output line: Yes

Input line: Test whether the sequence TDKLVTPGKYFSAAEYHAQRLKAV [IQUB] records protein stability index of 3 or higher.
Output line: Yes

Input line: Test whether the sequence GFCFFNSVAVAARHAQTISGHALR [HDAC6] records protein stability index of 3 or higher.
Output line: No

###

Experiment Description: protein stability index of a GFP-peptide fusion (GPS, HEK-293T) (PSI 1-6); higher = more stable
Experimental Conditions: treatment: DMSO; c terminus: a fixed tail appended
We use 5 as the dividing line for protein stability index: on or above the line is satisfied, below is not satisfied.

Example entries begin here.
Chain | Qualitative Label
RVRPTFQEITSETEDLCEKPDDEV [RIPK4] | satisfied
RLGWQQQAELQELEERLQLQFEAE [MTUS2] | not satisfied
RHNALLSKRLLALTSSDLGCQPSR [TMEM192] | not satisfied

Input line: Test whether the sequence SGLRGGILIELAMRGRIYLEPPTM [GOLPH3L] records protein stability index of 5 or higher.
Output line: not satisfied

Input line: Test whether the sequence KVHRARKTMPKSVVGLHAASKDPR [EHMT1] records protein stability index of 5 or higher.
Output line: not satisfied

Input line: Test whether the sequence QQAGLLVTGEKEEPSRSASEADSE [PPEF2] records protein stability index of 5 or higher.
Output line: satisfied

###

Task for the reader: assign each of the following sequences its reported protein stability index.
Experiment Description: protein stability index of a GFP-peptide fusion (GPS, HEK-293T) (PSI 1-6); higher = more stable
Experimental Conditions: treatment: DMSO; c terminus: a fixed tail appended
Numbers only.

Worked examples follow.
Chain | Number
DFALINKLDIQCDLKTLSDDIKES [ATE1] | 4.15
ELSEEGAEGRVVGRKDITSILRAP [MOSPD3] | 4.82

Batch lookup, protein stability index per entry.
1. QELLKRTIMQAVSQIRLNREHKET [TEKT4]
2. TIMQAVSQIRLNREHKETCEMDWS [TEKT4]
3. PVAQSTDGIRGKVGHARGLHAWQI [SPSB4]
4. GLTFLLPFLFFGHFWQLFNALTLF [TMEM120A]
5. GSKVTCRGLLEYFKAYIKIYQGED [ATL3]
6. QVEVDAQQCMLEILDTAGTEQFTA [RAP1B]
7. DGKLRLLTKLLASKSKEEVSSLIS [FEM1C]
8. GSLDLVPGGLTLEEHSLEQVQSMV [SPDEF]

Output line:
[2.63, 2.3, 2.68, 2.85, 2.31, 4.54, 2.33, 4.35]

Batch lookup, protein stability index per entry.
1. ALMHVMQKRSRAIHSSDEGEDQAG [WAS]
2. LRLADEFGVAVVITNQVVAQVDGA [RAD51]
3. WLYYYAYKDFLWFFSKRFKSAAML [SOAT1]

Output line:
4.25
2.31
2.15

###

Task for the reader: assign each of the following sequences its reported protein stability index.
Experiment Description: protein stability index of a GFP-peptide fusion (GPS, HEK-293T) (PSI 1-6); higher = more stable
Experimental Conditions: treatment: MLN4924 1 uM, 8 h; c terminus: a fixed tail appended
Numbers only.

Chain | protein stability index
SGSESPSDSGKDLPEPSKRGPPHG [MYCL] | 5.32
PKAERLRWSPAQEESFRQMVVIHK [ZNF232] | 3.25

Batch lookup, protein stability index per entry.
1. PPGNVYWPLRGKREAMLEMLLQHQ [SPAG8]
2. QRLVEALEENELTSLAEDLLGLTD [TRADD]
3. FEDPRDAEDAVYGRDGYDYDGYRL [SRSF1]

Output line:
1. 2.65
2. 4.28
3. 4.8

Batch lookup, protein stability index per entry.
1. KIIAVGVIDILPNCVSSVYLYYDP [ATE1]
2. GFPGERTYNTKVYKMFASRRKQRY [LOXL2]
3. IENLAKANPQYTVYSQASTMSIPV [PPP2R5C]
4. IQECVPEDLELKKKIFAQLDSIID [CRYL1]

Output line:
[3.19, 2.98, 2.65, 3.33]

Batch lookup, protein stability index per entry.
1. SQMSPLSLYGENSNSLSSAEPLKE [ATF6]
2. FRNLVADRVLNYTSWSQHCPWEPQ [SPAG8]
3. LVELPASFRELLTFFCTNATIHGA [SCNN1D]

Output line:
[5.03, 2.36, 2.63]

Batch lookup, protein stability index per entry.
1. PTEGAGSPAKASQASKLRASKEEK [FBF1]
2. TNVESQLAEIRCDLERQNQEYQVL [KRT34]
3. ALMHVMQKRSRAIHSSDEGEDQAG [WAS]
4. SEGLHLAGTAGHPPSGSQPLTSTQ [FBF1]
5. WLQNTHVYSWPKNKKNILLRLLRE [TRAF3IP2]
6. FPSTSYNARLQAMWGQSLLPPVST [TNXB]

Output line:
[5.43, 4.27, 4.49, 4.96, 2.38, 2.51]

###

Experiment Description: protein stability index of a GFP-peptide fusion (GPS, HEK-293T) (PSI 1-6); higher = more stable
Experimental Conditions: treatment: DMSO; c terminus: a fixed tail appended
Measured Metric: protein stability index
Answers are plain numbers.

Chain | Number
EELAYLKKNHEEEMKEFSSQLAGQ [KRT15] | 5.22
TWWRVRNAANRTGYVPSNYVERKN [NCK2] | 2.86
VENGDFNWIVPGKFLAFSGPHPKS [CDC14A] | 2.76
GAGAGAPGGGRLLLSTSLDAKDEL [INTS3] | 5.04
EKSVLKEVSHPFLIRLFWTWHDER [PRKX] | 2.56

Batch lookup, protein stability index per entry.
1. SIQMNVAEVSWEPGRREGCDICAG [RPS21]
2. MAETVADTRRLITKPQNLNDAYGP [SNX3]

Output line:
[2.7, 3.95]

###

Experiment Description: protein stability index of a GFP-peptide fusion (GPS, HEK-293T) (PSI 1-6); higher = more stable
Experimental Conditions: treatment: DMSO; c terminus: a fixed tail appended
Measured Metric: protein stability index

Chain | protein stability index
LSRENIQSSLLETLYRNRSNLETI [PPEF2] | 2.83
GVSFHIDSAELEPGSQTAVKNSNR [FBXO34] | 4.71
QQSDLGQYVTFLRSFSDKQKISLL [ALG2] | 2.22
HPGSGTKVQFNLQFTKPNASLGDV [SASS6] | 3.17

Batch lookup, protein stability index per entry.
1. RWREGTKDSHDPLPSWAELLRPKY [PBXIP1]
2. LERQLQAEFIESGQYRANEGTSSI [TAF7L]
3. TDKQPLSDAWTYCISKNEWIQFNH [KLHDC2]
4. VDTLTFQSQSLRDRARRFEEALRK [MTUS2]
5. NLQELLELDSSSSLCVLVSTVGKL [CEP70]

Output line:
[2.5, 4.7, 2.5, 4.08, 2.29]

Batch lookup, protein stability index per entry.
1. QAHGSEGLTFQGLLPLTELSVCPL [PLEKHN1]
2. GHPVGLALEAAVHVQKLSQECLKQ [TRIM14]
3. ARGLDDAAARGGQCPGLGPAPTPT [ZBED3]
4. QDIAQEISEAFSQRVGFGDDFDED [CHMP4C]

Output line:
[3.08, 3.07, 4.65, 5.62]

###

Experiment Description: protein stability index of a GFP-peptide fusion (GPS, HEK-293T) (PSI 1-6); higher = more stable
Experimental Conditions: treatment: DMSO; c terminus: a fixed tail appended
Measured Metric: protein stability index
Numbers only.

Chain | protein stability index
APSLRRHVLIHNTLQQLQAALRLA [SERTAD3] | 2.21

Batch lookup, protein stability index per entry.
1. LTEIYRIVSQKQMSDRRENDMSPS [RAB11A]
2. FWKKYRTFWKEDKAFWKEDNALWE [CCDC70]
3. IFRDNQWVGFDDVESFKTKVSYLK [CHIT1]

Output line:
1. 3.54
2. 2.54
3. 2.54

Batch lookup, protein stability index per entry.
1. PGSQALPAPALAPDQLPQNNTLVA [FBXO28]
2. LHAQLRDLTSSSSDELSWIIELLE [ELF3]
3. DGMLYILGGEDGEKELISMECYDI [GAN]
4. TRLYLRSHRPNMELCRDAAQFRLL [TEKT4]
5. GYRQQKAYIATQGPLAETTEDFWR [PTPRD]
6. SELPFVPNYLANPAFPFIYTPTAE [ANKRD40]
7. ERKGWLAPSPGVKEQAIWKHPQPA [PKD2L1]

Output line:
[4.74, 2.83, 2.05, 2.16, 3.28, 2.8, 3.52]

Batch lookup, protein stability index per entry.
1. FEAAFGTTPSTSSSSSFDPSVFDG [SNAP91]
2. RQSGDRRQLPPPPTPANEERRGGL [WAS]
3. VHGIRSVGTAAVNMCLVATGGADA [IMPA1]
4. NGLTLLILGVIGLFTIPLLYRQHQ [RTN2]
5. FRQFGYQDSPGPHEALSRLWELCH [ZNF396]
6. MEGDGGTPWALALLRTFDAGEFTG [RIPK4]
7. RHSFRKHLYLLRGLPGSGKTTLAR [N4BP2L1]
8. DDVIVQGDIQELYDTTLALGHAAA [GLT8D2]

Output line:
1. 4.61
2. 5.42
3. 2.78
4. 3.39
5. 2.28
6. 2.11
7. 2.5
8. 4.47

Batch lookup, protein stability index per entry.
1. FAYLEDLHSEFDEQHGKKVPTVSR [SEC22B]
2. RFYLPLLIHQHEKVIYLDDDVIVQ [GLT8D2]
3. PRMNEVYTRLGEMNNAVRNLQELL [CEP70]
4. GELLLDVAWHPVRPIIASISSGVV [RBBP5]
5. KFSNIVDKFVIVDCRYPYEYEGGH [CDC25B]
6. DRGDYYLEGYRDNAYKDLAWKHGN [PCMTD1]
7. LASRNPCPWHYLHLSGSHNTLAPT [RSPH3]
8. MNQTCCPQYTIRCRPLQFQPSKSH [ATE1]

Output line:
[3.64, 2.32, 3.78, 2.3, 2.47, 3.18, 2.41, 2.06]
